Target Or System: HLA-A02.01 (Homo sapiens, UniProt P04439, D140Y/D185E/D98H/E176V/E277Q/G131W/G231S/I119V/I121R/I166T/I218V/L300P/L318F/N151K/N90K/P208A/P217A/Q86G/Q94H/R138H/R169H/T345S)
Protocol Summary: Class I MHC peptide binding affinity (displacement of radiolabeled reference peptide)
Assay Conditions: allele A02.01; read-out: Observed Affinity (IC50; (nM))
Where a SMILES comes first, the peptide text is derived from it.
Listed molecules paired with reported IC50
Value Type: IC50

Molecule	Observed Measurement
CSCC[C@H](NC(=O)[C@H](CCC(=O)O)NC(=O)[C@H](CC(C)C)NC(=O)[C@H](CC(C)C)NC(=O)[C@H](CC(C)C)NC(=O)[C@H](CC(=O)O)NC(=O)[C@H](CO)NC(=O)[C@H](CC(C)C)NC(=O)[C@@H]1CCCN1)C(=O)N[C@@H](CC(C)C)C(=O)O (H-PLSDLLLEML-OH; N-terminus and C-terminus assumed)	6470 nM
CC(C)C[C@H](NC(=O)[C@H](C)NC(=O)[C@H](CCC(=O)O)NC(=O)[C@H](CCC(N)=O)NC(=O)[C@@H](NC(=O)[C@H](CC(=O)O)NC(=O)[C@H](Cc1ccccc1)NC(=O)[C@H](CCC(=O)O)NC(=O)[C@H](CCC(N)=O)NC(=O)[C@@H](N)CC(C)C)C(C)C)C(=O)O [LQEFDVQEAL] (H-LQEFDVQEAL-OH)	50300 nM
CC(C)[C@H](N)C(=O)N[C@H](C(=O)N1CCC[C@H]1C(=O)N[C@@H](CS)C(=O)N[C@@H](CCC(=O)O)C(=O)N1CCC[C@H]1C(=O)N1CCC[C@H]1C(=O)N[C@@H](CCC(=O)O)C(=O)N[C@H](C(=O)O)C(C)C)C(C)C	187 nM
CC(C)C[C@H](NC(=O)[C@H](Cc1c[nH]cn1)NC(=O)[C@H](Cc1c[nH]c2ccccc12)NC(=O)[C@H](CC(C)C)NC(=O)[C@@H](N)CCCNC(=N)N)C(=O)N[C@@H](CC(C)C)C(=O)N[C@@H](CC(C)C)C(=O)N[C@@H](CCC(N)=O)C(=O)N[C@H](C(=O)N[C@H](C(=O)O)[C@@H](C)O)C(C)C (H-RLWHLLLQVT-OH; N-terminus and C-terminus assumed)	50.9 nM
CC(C)C[C@H](NC(=O)[C@H](C)N)C(=O)N[C@@H](Cc1ccccc1)C(=O)N[C@@H](Cc1ccccc1)C(=O)N[C@@H](Cc1ccccc1)C(=O)N[C@@H](Cc1ccccc1)C(=O)N[C@@H](Cc1ccccc1)C(=O)N[C@@H](CCC(=O)O)C(=O)N[C@H](C(=O)O)[C@@H](C)O (H-ALFFFFFET-OH; N-terminus and C-terminus assumed)	471 nM
CC(C)C[C@H](NC(=O)[C@H](CO)NC(=O)[C@H](CC(N)=O)NC(=O)[C@H](CS)NC(=O)[C@H](CCC(=O)O)NC(=O)[C@H](Cc1c[nH]cn1)NC(=O)[C@H](CC(C)C)NC(=O)[C@@H](NC(=O)[C@H](CCC(N)=O)NC(=O)[C@@H](N)CC(C)C)C(C)C)C(=O)O	4720 nM
CC[C@H](C)[C@H](NC(=O)[C@@H]1CCCN1C(=O)[C@H](CCCNC(=N)N)NC(=O)[C@H](CCC(N)=O)NC(=O)[C@H](CC(N)=O)NC(=O)[C@H](CCSC)NC(=O)CNC(=O)CNC(=O)[C@H](CCSC)NC(=O)[C@@H](N)CS)C(=O)O	3670 nM
